Target: T1, human CD20 (human, UniProt P11836 1-297)
T1 sequence: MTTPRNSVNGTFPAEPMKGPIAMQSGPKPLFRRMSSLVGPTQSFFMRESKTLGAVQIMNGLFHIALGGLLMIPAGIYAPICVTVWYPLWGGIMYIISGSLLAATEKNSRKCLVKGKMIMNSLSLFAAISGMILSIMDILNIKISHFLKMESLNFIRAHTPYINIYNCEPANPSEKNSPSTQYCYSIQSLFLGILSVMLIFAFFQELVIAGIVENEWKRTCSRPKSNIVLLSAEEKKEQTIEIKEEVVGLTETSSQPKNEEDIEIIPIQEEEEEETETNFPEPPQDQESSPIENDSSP
Assay: cell-based or functional assay

{"Binder": "10E3-17 (antibody, V domains shown, Fully human IgG, constant region not specified; also called 10E3-17N) VH: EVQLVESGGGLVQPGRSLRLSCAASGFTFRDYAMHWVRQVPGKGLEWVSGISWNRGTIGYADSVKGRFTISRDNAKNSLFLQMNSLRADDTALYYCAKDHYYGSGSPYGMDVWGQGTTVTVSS VL: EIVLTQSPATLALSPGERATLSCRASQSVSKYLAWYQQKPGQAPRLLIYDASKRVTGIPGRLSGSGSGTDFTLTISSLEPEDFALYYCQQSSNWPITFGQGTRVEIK", "% Cytotoxicity (CDC, Daudi), 6 hour, %": 79.2}
